meta.source: patent EP4656654A1

measured_on: SSTR2 (Homo sapiens)
Construct: host or cells: CHO-K1
experiment: competitive radioligand binding assay (125I-Tyr11-Somatostatin-14) on membranes of SSTR2-overexpressing CHO-K1 cells
measurement_context: parameter D of fitted curve
Numbered stars: 1 amine (or outer) side, 2 acyl side, 3 side chain; on linkers, the order of the positions; unused ones are H or OH. Bridge positions count the residues as written; N and C are the ends. Square brackets hold non-standard residues; d marks the D form. Peptide text beside a SMILES is read from it. * marks the point of attachment. Phe(3-CH2NH2) = O=C([C@H](Cc1cccc(CN[*:3])c1)N[*:1])[*:2]; DOTA = O=C(O)CN1CCN(CC(=O)O)CCN(CC(=O)*)CCN(CC(=O)O)CC1; X2 = CC(C)(CN)CC[C@H](N[*:1])C(=O)[*:2]; Thr(ol) = C[C@@H](O)[C@H](N)CO
metric: Hill slope
One number for each entry.

Guide cases for Hill slope, answers given:
molecule="C[C@@H](O)[C@H](NC(=O)[C@@H]1CSSC[C@H](NC(=O)[C@@H](Cc2ccccc2)NC(=O)CN2CCN(CC(=O)O)CCN(CC(=O)O)CCN(CC(=O)O)CC2)C(=O)N[C@@H](Cc2ccc(O)cc2)C(=O)N[C@H](Cc2c[nH]c3ccccc23)C(=O)N[C@@H](CCC(C)(C)CN)C(=O)N[C@@H]([C@@H](C)O)C(=O)N1)C(=O)O [Compound 6] ({DOTA}-[dF]CY[dW][X2]TCT-OH; disulfide 2-7; N-terminus and C-terminus assumed)" metric="Hill slope" reported_measurement=0.88
molecule="C[C@@H](O)[C@@H]1NC(=O)[C@H](Cc2cccc(CN)c2)NC(=O)[C@@H](Cc2c[nH]c3ccccc23)NC(=O)[C@H](Cc2ccccc2)NC(=O)[C@@H](NC(=O)[C@H](N)Cc2ccccc2)CSSC[C@@H](C(=O)N[C@H](CO)[C@@H](C)O)NC1=O [Compound 5] (H-[dF]CF[dW][Phe(3-CH2NH2)]TC[Thr(ol)]; disulfide 2-7)" metric="Hill slope" reported_measurement=0.84
molecule="C[C@@H](O)[C@@H]1NC(=O)[C@H](C2CCCC(CN)C2)NC(=O)[C@@H](Cc2c[nH]c3ccccc23)NC(=O)[C@H](Cc2ccccc2)NC(=O)[C@@H](NC(=O)[C@H](N)Cc2ccccc2)CSSC[C@@H](C(=O)N[C@H](CO)[C@@H](C)O)NC1=O (single isomer, unassigned) [Compound 7p2]" metric="Hill slope" reported_measurement=1.08

Next item in the queue.
Incoming: // lookup Hill slope for C[C@@H](O)[C@@H]1NC(=O)[C@H](C2CCCC(CN)C2)NC(=O)[C@@H](Cc2c[nH]c3ccccc23)NC(=O)[C@H](Cc2ccccc2)NC(=O)[C@@H](NC(=O)[C@H](N)Cc2ccccc2)CSSC[C@@H](C(=O)N[C@H](CO)[C@@H](C)O)NC1=O (single isomer, unassigned) [Compound 4]
Outgoing: 1.07

###

measured_on: SSTR2 (Homo sapiens, UniProt P30874)
Construct: host or cells: CHO-K1
Sequence (P30874 whole entry): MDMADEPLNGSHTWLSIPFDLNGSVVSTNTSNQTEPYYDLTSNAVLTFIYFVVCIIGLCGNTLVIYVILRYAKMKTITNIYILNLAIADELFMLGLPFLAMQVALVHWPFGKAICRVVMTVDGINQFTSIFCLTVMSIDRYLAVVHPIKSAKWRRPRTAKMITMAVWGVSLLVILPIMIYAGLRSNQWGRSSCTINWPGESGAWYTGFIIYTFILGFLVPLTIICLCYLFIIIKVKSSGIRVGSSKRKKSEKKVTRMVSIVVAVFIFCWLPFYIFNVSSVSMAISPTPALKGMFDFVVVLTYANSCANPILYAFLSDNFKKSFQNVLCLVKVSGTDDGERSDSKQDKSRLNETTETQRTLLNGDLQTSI
experiment: competitive radioligand binding assay (125I-Tyr11-Somatostatin-14) on membranes of SSTR2-overexpressing CHO-K1 cells
measurement_context: parameter B, top of fitted % Effect curve
metric: Top (%)
Numbers only, in %.

Incoming: // lookup Top for C[C@@H](O)[C@@H]1NC(=O)[C@H](C2CCCC(CN)C2)NC(=O)[C@@H](Cc2c[nH]c3ccccc23)NC(=O)[C@H](Cc2ccccc2)NC(=O)[C@@H](NC(=O)[C@H](N)Cc2ccccc2)CSSC[C@@H](C(=O)N[C@H](CO)[C@@H](C)O)NC1=O (single isomer, unassigned) [Compound 4]
Outgoing: 99.9
